Method description: self-splicing fitness, log relative to wild type (ln ratio); higher = more splicing; Tetrahymena group I intron in knt gene, E. coli kanamycin selection, DiMSum; sequences stand for … in CUCUCU…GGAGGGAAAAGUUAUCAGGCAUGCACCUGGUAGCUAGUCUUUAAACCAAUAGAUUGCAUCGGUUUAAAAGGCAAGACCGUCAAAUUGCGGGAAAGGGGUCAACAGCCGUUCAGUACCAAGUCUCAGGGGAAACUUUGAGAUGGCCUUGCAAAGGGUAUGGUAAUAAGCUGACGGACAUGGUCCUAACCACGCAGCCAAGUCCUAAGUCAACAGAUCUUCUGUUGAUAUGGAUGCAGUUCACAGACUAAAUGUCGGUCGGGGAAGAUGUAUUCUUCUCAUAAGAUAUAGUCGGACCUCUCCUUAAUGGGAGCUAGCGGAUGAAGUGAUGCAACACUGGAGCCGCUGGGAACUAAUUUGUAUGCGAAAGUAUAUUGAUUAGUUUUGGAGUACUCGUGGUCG;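 also: selection with 25 µg/mL kanamycin versus none on LB agar overnight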
Stated conditions: 30 °C
Property: self-splicing fitness (ln)
Keep the answer to the number alone.

The recorded self-splicing fitness (ln) for entry `UACGAGCAAUAUUACGAUAG` equals -3.66

The recorded self-splicing fitness (ln) for entry `UGUGAGCAAUAUUACGAUUA` equals -1.17

The recorded self-splicing fitness (ln) for entry `UCUCAGCAAUAUUACGGAUC` equals -3.82

The recorded self-splicing fitness (ln) for entry `UUGAAGCAAUAUUACGAACG` equals 0.338

The recorded self-splicing fitness (ln) for entry `CAAUAGCAAUAUUACGGCCU` equals -2.69

The recorded self-splicing fitness (ln) for entry `ACUGAGCAAUAUUACGAUGA` equals -1.9

The recorded self-splicing fitness (ln) for entry `CGCGAGCAAUAUUACGAGAG` equals -2.69

The recorded self-splicing fitness (ln) for entry `UUAAAGCAAUAUUACGCGAG` equals -0.116

The recorded self-splicing fitness (ln) for entry `CAUGAGCAAUAUUACGGGGG` equals -2.64

The recorded self-splicing fitness (ln) for entry `UGGCAGCAAUAUUACGCGCA` equals -0.259

The recorded self-splicing fitness (ln) for entry `AAGUAGCAAUAUUACGGGUG` equals -3.43

The recorded self-splicing fitness (ln) for entry `UACUAGCAAUAUUACGGCUC` equals -1.67

The recorded self-splicing fitness (ln) for entry `AGCUAGCAAUAUUACGGCCG` equals -0.198

The recorded self-splicing fitness (ln) for entry `AGGCAGCAAUAUUACGUGCA` equals -1.01

The recorded self-splicing fitness (ln) for entry `AGGAAGCAAUAUUACGGUAA` equals -2.47

The recorded self-splicing fitness (ln) for entry `UUGAAGCAAUAUUACGUCGA` equals 0.473

The recorded self-splicing fitness (ln) for entry `CGAAAGCAAUAUUACGUUGU` equals -3.63

The recorded self-splicing fitness (ln) for entry `AGCAAGCAAUAUUACGUUCA` equals -0.99

The recorded self-splicing fitness (ln) for entry `CACAAGCAAUAUUACGUCGU` equals -3.56

* * *

Method description: self-splicing fitness, log relative to wild type (ln ratio); higher = more splicing; Tetrahymena group I intron in knt gene, E. coli kanamycin selection, DiMSum; sequences stand for … in CUCUCU…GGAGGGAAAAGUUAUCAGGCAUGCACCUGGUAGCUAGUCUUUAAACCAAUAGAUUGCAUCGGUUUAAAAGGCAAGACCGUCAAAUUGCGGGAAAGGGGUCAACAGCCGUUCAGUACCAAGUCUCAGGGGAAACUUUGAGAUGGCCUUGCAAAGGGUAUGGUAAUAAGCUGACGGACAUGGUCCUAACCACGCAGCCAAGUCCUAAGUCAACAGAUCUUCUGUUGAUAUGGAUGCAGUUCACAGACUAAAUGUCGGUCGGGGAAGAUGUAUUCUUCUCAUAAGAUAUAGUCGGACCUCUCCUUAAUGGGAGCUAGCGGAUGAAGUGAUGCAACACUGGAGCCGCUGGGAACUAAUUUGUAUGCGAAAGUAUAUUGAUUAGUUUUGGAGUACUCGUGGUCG
Stated conditions: 37 °C
Could you please report measured self-splicing fitness (ln) for the items listed next?
Keep the answer to the number alone.

The recorded self-splicing fitness (ln) for entry `ACGGAGCAAUAUUACGACAG` equals -2.62

The recorded self-splicing fitness (ln) for entry `CGAAAGCAAUAUUACGUUUU` equals -2.31

The recorded self-splicing fitness (ln) for entry `UCACAGCAAUAUUACGGUAA` equals -0.187

The recorded self-splicing fitness (ln) for entry `CGCAAGCAAUAUUACGACAA` equals -1.51

The recorded self-splicing fitness (ln) for entry `AACAAGCAAUAUUACGCGAA` equals -0.546

The recorded self-splicing fitness (ln) for entry `UAGCAGCAAUAUUACGAGCA` equals 0.249

The recorded self-splicing fitness (ln) for entry `AUGUAGCAAUAUUACGAAUA` equals -1.22

The recorded self-splicing fitness (ln) for entry `GAUGAGCAAUAUUACGCCUA` equals -0.51

The recorded self-splicing fitness (ln) for entry `GCGAAGCAAUAUUACGUGCA` equals -0.452

The recorded self-splicing fitness (ln) for entry `CCCAAGCAAUAUUACGGCAU` equals -2.84

The recorded self-splicing fitness (ln) for entry `CGGCAGCAAUAUUACGAGUC` equals -1.76

The recorded self-splicing fitness (ln) for entry `CGUGAGCAAUAUUACGCCCA` equals -2.03

The recorded self-splicing fitness (ln) for entry `UCGUAGCAAUAUUACGGAAA` equals -2.72

The recorded self-splicing fitness (ln) for entry `CACGAGCAAUAUUACGCUUG` equals -2.03

The recorded self-splicing fitness (ln) for entry `CUGCAGCAAUAUUACGGCGG` equals -2.23

The recorded self-splicing fitness (ln) for entry `GCAUAGCAAUAUUACGUGUU` equals -2.36

The recorded self-splicing fitness (ln) for entry `ACUCAGCAAUAUUACGCCUC` equals -1.13

The recorded self-splicing fitness (ln) for entry `CUGUAGCAAUAUUACGUUCG` equals 0.798

The recorded self-splicing fitness (ln) for entry `CUUAAGCAAUAUUACGUGCA` equals -1.34

The recorded self-splicing fitness (ln) for entry `CAACAGCAAUAUUACGCGAA` equals -1.61

The recorded self-splicing fitness (ln) for entry `GGUAAGCAAUAUUACGCUUG` equals -1.7

The recorded self-splicing fitness (ln) for entry `AUACAGCAAUAUUACGCGAG` equals -0.829

The recorded self-splicing fitness (ln) for entry `UUUCAGCAAUAUUACGAUGA` equals -0.285

The recorded self-splicing fitness (ln) for entry `CAUUAGCAAUAUUACGUCCG` equals -0.142

The recorded self-splicing fitness (ln) for entry `CAUAAGCAAUAUUACGAGUG` equals -2.86

The recorded self-splicing fitness (ln) for entry `AAGCAGCAAUAUUACGCCUA` equals -0.183

The recorded self-splicing fitness (ln) for entry `UCCCAGCAAUAUUACGCUGU` equals -2.18

The recorded self-splicing fitness (ln) for entry `GCUUAGCAAUAUUACGUACA` equals -0.577

The recorded self-splicing fitness (ln) for entry `GUCGAGCAAUAUUACGACCU` equals -1.74

The recorded self-splicing fitness (ln) for entry `UGCCAGCAAUAUUACGAGUU` equals -0.56

The recorded self-splicing fitness (ln) for entry `CCUUAGCAAUAUUACGAGAC` equals -1.83

The recorded self-splicing fitness (ln) for entry `GGAAAGCAAUAUUACGUAGU` equals -1.23

The recorded self-splicing fitness (ln) for entry `UCCCAGCAAUAUUACGGCUC` equals -2.31

The recorded self-splicing fitness (ln) for entry `UCAUAGCAAUAUUACGCUUU` equals -2.41

The recorded self-splicing fitness (ln) for entry `AAACAGCAAUAUUACGCGGC` equals -2.7

The recorded self-splicing fitness (ln) for entry `UAUGAGCAAUAUUACGGUGU` equals -2.63

The recorded self-splicing fitness (ln) for entry `ACGGAGCAAUAUUACGCUUC` equals -2.81

The recorded self-splicing fitness (ln) for entry `GUCGAGCAAUAUUACGCCUU` equals -1.77

The recorded self-splicing fitness (ln) for entry `CAAAAGCAAUAUUACGUGCU` equals -2.27

The recorded self-splicing fitness (ln) for entry `UCAUAGCAAUAUUACGCACA` equals -0.159

The recorded self-splicing fitness (ln) for entry `ACGCAGCAAUAUUACGCACA` equals -0.0125

The recorded self-splicing fitness (ln) for entry `AUUUAGCAAUAUUACGCACA` equals -0.202

The recorded self-splicing fitness (ln) for entry `CCUUAGCAAUAUUACGCUUU` equals -2.46
